- Test description: yeast display, Sf9 membrane polyspecificity reagent, FACS + sequencing; frameworks hold sequencing errors
Quantity measured: polyreactivity (PSR sort gate)

Sequence text	polyreactivity (PSR sort gate)
QVQLVESGGGLVQAGGSLRLSCAASGYTFSRYAMGWYRQAPGKERELVAAISHSAGRTYYADSVKGRFTISRDNAKNTVYLQMNSLKPEDTAVYYCATAYKPDTRDDYWGQGTQVTVSS	high polyreactivity
QVQLVESGGGLVQAGGSLRLSCAASGLTIVQYAMGWYRQAPGKERELVARISRNGGSSYYADSVKGRFPISRDNAKNTVYLQMNSLKPEDTAVYYCNALRGPVKFYYWGQGTQVTVSS	low polyreactivity
QVQLVESGGGLVQAGGSLRLSCAASGRIFLRNDMGWYRQAPGKVRELVAGISSDGSTYYADSVKGRFTISRDNAKNTVYLQMTSLKPEDTAVYYCNAEDTPGAGDGNWGQGTQVTVSS	low polyreactivity
QVQLVESGGGLVQAGGSLRLSCAASGLTFKKYAMGWYRQAPGKERELVAAISRGGSTNYADSVKGRFTISRDNAKNTVYLQMNSLKPDDTAVYYCAAEGYWHVYADYYLEDYYWGQGTQVTVSS	high polyreactivity

Now for another entry.
Q: Let me know recorded polyreactivity (PSR sort gate) for QVQLVESGGGLVQAGGSLRLSCAASGSTIYGYTMGWYRQAPGKEREMVAVITSGGSTYFADSVKGRFTISRDNAKNTVYLQMNSLKPEVTAVYYCAKRYGYTAYGRPWRIGRTYDYWGQGTQVTVSS , thanks.
Ans: low polyreactivity
